Biological target: T1, hAPLNR (Homo sapiens, UniProt P35414)
T1 construct: expressed in transfected cells
T1 sequence (P35414 1-380): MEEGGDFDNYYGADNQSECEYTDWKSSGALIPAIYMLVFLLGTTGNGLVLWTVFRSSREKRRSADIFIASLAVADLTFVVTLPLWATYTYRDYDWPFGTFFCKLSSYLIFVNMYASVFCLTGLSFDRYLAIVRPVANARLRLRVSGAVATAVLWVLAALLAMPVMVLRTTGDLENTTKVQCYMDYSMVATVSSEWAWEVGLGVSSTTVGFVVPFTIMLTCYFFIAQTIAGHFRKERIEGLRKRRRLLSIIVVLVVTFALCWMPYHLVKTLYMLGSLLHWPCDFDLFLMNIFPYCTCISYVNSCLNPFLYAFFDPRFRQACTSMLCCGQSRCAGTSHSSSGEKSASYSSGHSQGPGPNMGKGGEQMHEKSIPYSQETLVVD
Experiment: cyclic AMP (CRE-luciferase) assay, activation of hAPLNR in HEK293/CRE-luc/hAPLNR cells
Type: cell-based
Details: Table 6A; % of maximum Apelin activation, without Apelin
measurementKind: % Activation at 100 nM mAb (at 10 uM Forskolin)

>>> measuredresult("H2aM9228N: anti-APLNR antibody, HCVR/LCVR SEQ ID NOs 66/74, mouse IgG2a Fc (antibody, V domains shown, mouse IgG2a Fc) VH: EVQLVESGGGLVQPGGSLRLSCAASGFTFSNYWMSWVRLAPGKGLEWVANIKQDGSERYYVGSVKGRFTISRGDAKNSLYLQMNSLRAEDTAVYYCARDRFGYSAFDKGVRYYYGMDVWGQGTTVTVSS VL: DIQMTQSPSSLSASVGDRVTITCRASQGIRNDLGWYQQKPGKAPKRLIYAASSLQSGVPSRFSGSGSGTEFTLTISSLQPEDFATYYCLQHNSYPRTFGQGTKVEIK")
"No Activation"
>>> measuredresult("H2aM9232N: antagonistic anti-APLNR antibody, HCVR/LCVR SEQ ID NOs 98/106, mouse IgG2a Fc (antibody, V domains shown, mouse IgG2a Fc) VH: QVKLVESGGGVVQPGRSLRLSCAASGFTFSNYVIHWVRQAPGKGLEWVAVIWYDGSNKYYADSVKGRFTISRDNSKNTLYLQMNSLRAEDTAVYYCARDRVVRGVDYYYYYGLDVWGQGTSVTVSS VL: EIVMTQSPATLSVSPGERATLSCRASQSVRSNLAWYQQKPGQAPRLLIYGASSRATGIPARFSGTGSGTEFTLTISSLQSDDFAVYYCQQYNKWPRTFGQGTKVEIK")
"No Activation"
